tested-on: Calpain-1 catalytic subunit (Homo sapiens, UniProt P07384)
Sequence (P07384 whole entry): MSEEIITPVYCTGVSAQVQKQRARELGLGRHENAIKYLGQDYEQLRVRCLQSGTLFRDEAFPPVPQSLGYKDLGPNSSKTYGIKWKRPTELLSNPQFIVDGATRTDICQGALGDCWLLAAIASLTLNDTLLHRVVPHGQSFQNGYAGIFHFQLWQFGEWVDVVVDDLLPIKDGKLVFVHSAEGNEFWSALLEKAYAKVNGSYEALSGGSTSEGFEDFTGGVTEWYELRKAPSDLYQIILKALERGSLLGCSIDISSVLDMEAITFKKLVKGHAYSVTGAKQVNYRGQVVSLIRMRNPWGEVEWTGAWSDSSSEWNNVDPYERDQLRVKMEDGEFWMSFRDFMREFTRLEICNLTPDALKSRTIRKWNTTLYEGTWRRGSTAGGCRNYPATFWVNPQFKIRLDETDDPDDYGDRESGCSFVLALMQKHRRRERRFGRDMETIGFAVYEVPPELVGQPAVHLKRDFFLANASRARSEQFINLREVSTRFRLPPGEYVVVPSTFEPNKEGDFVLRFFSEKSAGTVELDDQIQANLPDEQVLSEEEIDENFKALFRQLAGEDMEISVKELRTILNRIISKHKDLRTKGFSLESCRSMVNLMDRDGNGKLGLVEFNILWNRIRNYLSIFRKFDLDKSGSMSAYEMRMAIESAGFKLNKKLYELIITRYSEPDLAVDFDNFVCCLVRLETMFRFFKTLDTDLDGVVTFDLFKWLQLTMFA
method-description: Inhibition of calpain-1 (unknown origin) using Suc-LY-AMC as substrate by fluorescence assay
Peptide text beside a SMILES is read from it. * marks the point of attachment. X4 = CC(C)C[C@H](NC(=O)[C@@H]1O[C@H]1C(=O)*)C(=O)N[C@@H](Cc1c[nH]c2ccccc12)C(=O)N[C@H](C(N)=O)[C@@H](C)O; X1 = CC(C)C[C@H](NC(=O)[C@H]1O[C@@H]1C(=O)*)C(=O)N1CCC[C@H]1C(=O)N[C@H](C(N)=O)[C@@H](C)O; X2 = CC(C)C[C@H](NC(=O)[C@@H]1O[C@H]1C(=O)*)C(=O)N1CCC[C@H]1C(=O)N[C@H](C(N)=O)[C@@H](C)O; X6 = CC(C)C[C@H](NC(=O)[C@H]1O[C@@H]1C(=O)*)C(=O)N[C@@H](CO)C(=O)N[C@H](C(N)=O)[C@@H](C)O
experimental-readout: pKi
Entry type: numeric. Quantity: pKi, the -log10 of concentration in molar units.

[ask] Dear colleague, I am looking for the recorded pKi of the following compound: CC(C)C[C@H](NC(=O)[C@H]1O[C@@H]1C(=O)N[C@@H](CCCNC(=N)N)C(=O)N1CCC[C@H]1C(=O)N1CCC[C@H]1C(=O)N1CCC[C@H]1C(=O)N[C@@H](CO)C(N)=O)C(=O)N1CCC[C@H]1C(=O)N[C@H](C(N)=O)[C@@H](C)O (X1-RPPPS-NH2)
[reply] 4.62

[ask] Dear colleague, I am looking for the recorded pKi of the following compound: CC(C)C[C@H](NC(=O)[C@@H]1O[C@H]1C(=O)N[C@@H](CO)C(=O)N1CCC[C@H]1C(=O)N1CCC[C@H]1C(=O)N1CCC[C@H]1C(=O)N[C@@H](CO)C(N)=O)C(=O)N[C@@H](Cc1c[nH]c2ccccc12)C(=O)N[C@H](C(N)=O)[C@@H](C)O (X4-SPPPS-NH2)
[reply] 5.43

[ask] Dear colleague, I am looking for the recorded pKi of the following compound: CC(C)C[C@H](NC(=O)[C@H]1O[C@@H]1C(=O)N[C@@H](CO)C(=O)N1CCC[C@H]1C(=O)N1CCC[C@H]1C(=O)N1CCC[C@H]1C(=O)N[C@@H](CO)C(N)=O)C(=O)N[C@@H](CO)C(=O)N[C@H](C(N)=O)[C@@H](C)O (X6-SPPPS-NH2)
[reply] 4.66

[ask] Dear colleague, I am looking for the recorded pKi of the following compound: CC(C)C[C@H](NC(=O)[C@@H]1O[C@H]1C(=O)N[C@@H](CCCNC(=N)N)C(=O)N1CCC[C@H]1C(=O)N1CCC[C@H]1C(=O)N1CCC[C@H]1C(=O)N[C@@H](CO)C(N)=O)C(=O)N1CCC[C@H]1C(=O)N[C@H](C(N)=O)[C@@H](C)O (X2-RPPPS-NH2)
[reply] 4.58

* * *

Let's go through some pKi measurements on Cathepsin B (Homo sapiens) together.
pKi: −log10 of the molar value. Peptide text beside a SMILES is read from it. * marks the point of attachment. X1 = CC(C)C[C@H](NC(=O)[C@H]1O[C@@H]1C(=O)*)C(=O)N1CCC[C@H]1C(=O)N[C@H](C(N)=O)[C@@H](C)O; X2 = CC(C)C[C@H](NC(=O)[C@@H]1O[C@H]1C(=O)*)C(=O)N1CCC[C@H]1C(=O)N[C@H](C(N)=O)[C@@H](C)O; X6 = CC(C)C[C@H](NC(=O)[C@H]1O[C@@H]1C(=O)*)C(=O)N[C@@H](CO)C(=O)N[C@H](C(N)=O)[C@@H](C)O

[ask] Dear colleague, I am looking for the recorded pKi of the following molecule: CC(C)C[C@H](NC(=O)[C@H]1O[C@@H]1C(=O)N[C@@H](CO)C(=O)N1CCC[C@H]1C(=O)N1CCC[C@H]1C(=O)N1CCC[C@H]1C(=O)N[C@@H](CO)C(N)=O)C(=O)N[C@@H](CO)C(=O)N[C@H](C(N)=O)[C@@H](C)O (X6-SPPPS-NH2)
[reply] < 4.30

[ask] Dear colleague, I am looking for the recorded pKi of the following molecule: CC(C)C[C@H](NC(=O)[C@H]1O[C@@H]1C(=O)N[C@@H](CCCNC(=N)N)C(=O)N1CCC[C@H]1C(=O)N1CCC[C@H]1C(=O)N1CCC[C@H]1C(=O)N[C@@H](CO)C(N)=O)C(=O)N1CCC[C@H]1C(=O)N[C@H](C(N)=O)[C@@H](C)O (X1-RPPPS-NH2)
[reply] < 4.30

[ask] Dear colleague, I am looking for the recorded pKi of the following molecule: CC(C)C[C@H](NC(=O)[C@@H]1O[C@H]1C(=O)N[C@@H](CO)C(=O)N[C@@H](CO)C(=O)N1CCC[C@H]1C(=O)N1CCC[C@H]1C(=O)N[C@@H](CO)C(N)=O)C(=O)N1CCC[C@H]1C(=O)N[C@H](C(N)=O)[C@@H](C)O (X2-SSPPS-NH2)
[reply] < 4.00

[ask] Dear colleague, I am looking for the recorded pKi of the following molecule: CC(C)C[C@H](NC(=O)[C@@H]1O[C@H]1C(=O)N[C@H](C(=O)N1CCC[C@H]1C(=O)N1CCC[C@H]1C(=O)N1CCC[C@H]1C(=O)N[C@@H](CO)C(N)=O)[C@@H](C)O)C(=O)N1CCC[C@H]1C(=O)N[C@H](C(N)=O)[C@@H](C)O (X2-TPPPS-NH2)
[reply] < 4.30
